system: Pseudomonas aeruginosa ATCC 27853; test: Injectable formulations on mice infected with peritonitis; assay type: in vivo, ICR mice; conditions: 5 mg/kg via tail vein, twice a day for 3 days, n = 10
Non-standard residues stand in square brackets, D forms with d. Residues, ends and D or L forms follow the SMILES beside them. d2Nal = N[C@H](Cc1ccc2ccccc2c1)C(=O)O
ENDPOINT_LABEL: Number of mice that died on each day after infection: day 5

[[record]]
compound = "CC(=O)N[C@H](CCCNC(=N)N)C(=O)N[C@H](CCCNC(=N)N)C(=O)N[C@H](CC(C)C)C(=O)N[C@H](CC(C)C)C(=O)N[C@H](Cc1ccc2ccccc2c1)C(=O)N[C@H](CCCNC(=N)N)C(=O)N[C@H](CC(C)C)C(=O)N[C@H](CCCNC(=N)N)C(=O)N[C@H](Cc1ccc2ccccc2c1)C(=O)N[C@H](CCCNC(=N)N)C(=O)N[C@H](CCCNC(=N)N)C(N)=O [LV-1] (Ac-[dR][dR][dL][dL][d2Nal][dR][dL][dR][d2Nal][dR][dR]-NH2)"
system_name = "Pseudomonas aeruginosa ATCC 27853"
endpoint_result = "0 Mouse"


###

List of MIC Pseudomonas aeruginosa ATCC 27853 values.
system: Pseudomonas aeruginosa ATCC 27853; assay type: cell-based
Non-standard residues stand in square brackets, D forms with d. Residues, ends and D or L forms follow the SMILES beside them. dPhe(4-Me) = Cc1ccc(C[C@@H](N)C(=O)O)cc1; d2Nal = N[C@H](Cc1ccc2ccccc2c1)C(=O)O; dNle = CCCC[C@@H](N)C(=O)O
ENDPOINT_LABEL: MIC Pseudomonas aeruginosa ATCC 27853 (µg/mL)

[[record]]
compound = "CCCC[C@@H](NC(=O)[C@@H](CCCCN)NC(=O)[C@@H](CCCNC(=N)N)NC(C)=O)C(=O)N[C@H](CCCC)C(=O)N[C@H](Cc1ccc2ccccc2c1)C(=O)N[C@H](CCCNC(=N)N)C(=O)N[C@H](CCCC)C(=O)N[C@H](CCCCN)C(=O)N[C@H](Cc1ccc2ccccc2c1)C(=O)N[C@H](CCCNC(=N)N)C(=O)N[C@H](CCCCN)C(N)=O [LV-12] (Ac-[dR][dK][dNle][dNle][d2Nal][dR][dNle][dK][d2Nal][dR][dK]-NH2)"
endpoint_label = "MIC Pseudomonas aeruginosa ATCC 27853"
unit_symbol = "µg/mL"
endpoint_result = 1

[[record]]
compound = "CC(=O)N[C@H](CCCNC(=N)N)C(=O)N[C@H](CCCCN)C(=O)N[C@H](CC(C)C)C(=O)N[C@H](CC(C)C)C(=O)N[C@H](Cc1ccc(C)cc1)C(=O)N[C@H](CCCCN)C(=O)N[C@H](CC(C)C)C(=O)N[C@H](CCCCN)C(=O)N[C@H](Cc1ccc(C)cc1)C(=O)N[C@H](CCCCN)C(=O)N[C@H](CCCNC(=N)N)C(N)=O [LV-11] (Ac-[dR][dK][dL][dL][dPhe(4-Me)][dK][dL][dK][dPhe(4-Me)][dK][dR]-NH2)"
endpoint_label = "MIC Pseudomonas aeruginosa ATCC 27853"
unit_symbol = "µg/mL"
endpoint_result = 2


###

tested on: Corynebacterium ATCC 7715; format: cell-based
Non-standard residues stand in square brackets, D forms with d. Residues, ends and D or L forms follow the SMILES beside them. dPhe(4-F) = N[C@H](Cc1ccc(F)cc1)C(=O)O; d2Nal = N[C@H](Cc1ccc2ccccc2c1)C(=O)O
Here, each record is paired with measured MIC Corynebacterium ATCC 7715 data.
ENDPOINT_LABEL: MIC Corynebacterium ATCC 7715 (µg/mL)

[[record]]
molecule = "CC(=O)N[C@H](CCCNC(=N)N)C(=O)N[C@H](CCCCN)C(=O)N[C@H](C)C(=O)N[C@H](C)C(=O)N[C@H](Cc1ccc2ccccc2c1)C(=O)N[C@H](CCCNC(=N)N)C(=O)N[C@H](C)C(=O)N[C@H](CCCCN)C(=O)N[C@H](Cc1ccc2ccccc2c1)C(=O)N[C@H](CCCNC(=N)N)C(=O)N[C@H](CCCCN)C(N)=O [LV-15] (Ac-[dR][dK][dA][dA][d2Nal][dR][dA][dK][d2Nal][dR][dK]-NH2)"
unit_symbol = "µg/mL"
endpoint_result = 8

[[record]]
molecule = "CC(=O)N[C@H](CCCNC(=N)N)C(=O)N[C@H](CCCCN)C(=O)N[C@H](CC(C)C)C(=O)N[C@H](CC(C)C)C(=O)N[C@H](Cc1ccc2ccccc2c1)C(=O)N[C@H](CCCCN)C(=O)N[C@H](CC(C)C)C(=O)N[C@H](CCCCN)C(=O)N[C@H](Cc1ccc2ccccc2c1)C(=O)N[C@H](CCCCN)C(=O)N[C@H](CCCNC(=N)N)C(N)=O [LV-18] (Ac-[dR][dK][dL][dL][d2Nal][dK][dL][dK][d2Nal][dK][dR]-NH2)"
unit_symbol = "µg/mL"
endpoint_result = 2

[[record]]
molecule = "CC(=O)N[C@H](CCCNC(=N)N)C(=O)N[C@H](CCCCN)C(=O)N[C@H](CC(C)C)C(=O)N[C@H](CC(C)C)C(=O)N[C@H](Cc1ccc(F)cc1)C(=O)N[C@H](CCCCN)C(=O)N[C@H](CC(C)C)C(=O)N[C@H](CCCCN)C(=O)N[C@H](Cc1ccc(F)cc1)C(=O)N[C@H](CCCCN)C(=O)N[C@H](CCCNC(=N)N)C(N)=O [LV-5] (Ac-[dR][dK][dL][dL][dPhe(4-F)][dK][dL][dK][dPhe(4-F)][dK][dR]-NH2)"
unit_symbol = "µg/mL"
endpoint_result = 4


###

MIC Escherichia coli ATCC 25922 overview
tested on: Escherichia coli ATCC 25922; assay type: cell-based
Non-standard residues stand in square brackets, D forms with d. Residues, ends and D or L forms follow the SMILES beside them. dPhe(4-Cl) = N[C@H](Cc1ccc(Cl)cc1)C(=O)O; d2Nal = N[C@H](Cc1ccc2ccccc2c1)C(=O)O
ENDPOINT_LABEL: MIC Escherichia coli ATCC 25922 (µg/mL)

[[record]]
compound = "CC(=O)N[C@H](CCCNC(=N)N)C(=O)N[C@H](CCCNC(=N)N)C(=O)N[C@H](CC(C)C)C(=O)N[C@H](CC(C)C)C(=O)N[C@H](Cc1ccc2ccccc2c1)C(=O)N[C@H](CCCNC(=N)N)C(=O)N[C@H](CC(C)C)C(=O)N[C@H](CCCNC(=N)N)C(=O)N[C@H](Cc1ccc2ccccc2c1)C(=O)N[C@H](CCCNC(=N)N)C(=O)N[C@H](CCCNC(=N)N)C(N)=O [LV-1] (Ac-[dR][dR][dL][dL][d2Nal][dR][dL][dR][d2Nal][dR][dR]-NH2)"
endpoint_label = "MIC Escherichia coli ATCC 25922"
unit_symbol = "µg/mL"
endpoint_result = 1

[[record]]
compound = "CC(=O)N[C@H](CCCNC(=N)N)C(=O)N[C@H](CCCCN)C(=O)N[C@H](CC(C)C)C(=O)N[C@H](CC(C)C)C(=O)N[C@H](Cc1ccc(Cl)cc1)C(=O)N[C@H](CCCCN)C(=O)N[C@H](CC(C)C)C(=O)N[C@H](CCCCN)C(=O)N[C@H](Cc1ccc(Cl)cc1)C(=O)N[C@H](CCCCN)C(=O)N[C@H](CCCNC(=N)N)C(N)=O [LV-7] (Ac-[dR][dK][dL][dL][dPhe(4-Cl)][dK][dL][dK][dPhe(4-Cl)][dK][dR]-NH2)"
endpoint_label = "MIC Escherichia coli ATCC 25922"
unit_symbol = "µg/mL"
endpoint_result = 4

[[record]]
compound = "CC(=O)N[C@H](CCCNC(=N)N)C(=O)N[C@H](CCCCN)C(=O)N[C@H](CC(C)C)C(=O)N[C@H](CC(C)C)C(=O)N[C@H](Cc1ccccc1)C(=O)N[C@H](CCCNC(=N)N)C(=O)N[C@H](CC(C)C)C(=O)N[C@H](CCCCN)C(=O)N[C@H](Cc1ccccc1)C(=O)N[C@H](CCCNC(=N)N)C(=O)N[C@H](CCCCN)C(N)=O [LV-2] (Ac-[dR][dK][dL][dL][dF][dR][dL][dK][dF][dR][dK]-NH2)"
endpoint_label = "MIC Escherichia coli ATCC 25922"
unit_symbol = "µg/mL"
endpoint_result = 1


###

test system: Pseudomonas aeruginosa ATCC 27853; type: cell-based
Non-standard residues stand in square brackets, D forms with d. Residues, ends and D or L forms follow the SMILES beside them. dPhe(4-CF3) = N[C@H](Cc1ccc(C(F)(F)F)cc1)C(=O)O; d2Nal = N[C@H](Cc1ccc2ccccc2c1)C(=O)O
ENDPOINT_LABEL: MIC Pseudomonas aeruginosa ATCC 27853 (µg/mL)

[[record]]
compound = "CC(=O)N[C@H](CCCNC(=N)N)C(=O)N[C@H](CCCCN)C(=O)N[C@H](CC(C)C)C(=O)N[C@H](CC(C)C)C(=O)N[C@H](Cc1ccc(C(F)(F)F)cc1)C(=O)N[C@H](CCCCN)C(=O)N[C@H](CC(C)C)C(=O)N[C@H](CCCCN)C(=O)N[C@H](Cc1ccc(C(F)(F)F)cc1)C(=O)N[C@H](CCCCN)C(=O)N[C@H](CCCNC(=N)N)C(N)=O [LV-9] (Ac-[dR][dK][dL][dL][dPhe(4-CF3)][dK][dL][dK][dPhe(4-CF3)][dK][dR]-NH2)"
endpoint_label = "MIC Pseudomonas aeruginosa ATCC 27853"
unit_symbol = "µg/mL"
endpoint_result = 2

[[record]]
compound = "CC(=O)N[C@H](CCCCN)C(=O)N[C@H](CCCNC(=N)N)C(=O)N[C@H](CC(C)C)C(=O)N[C@H](CC(C)C)C(=O)N[C@H](Cc1ccc2ccccc2c1)C(=O)N[C@H](CCCCN)C(=O)N[C@H](CC(C)C)C(=O)N[C@H](CCCCN)C(=O)N[C@H](Cc1ccc2ccccc2c1)C(=O)N[C@H](CCCCN)C(=O)N[C@H](CCCNC(=N)N)C(N)=O [LV-23] (Ac-[dK][dR][dL][dL][d2Nal][dK][dL][dK][d2Nal][dK][dR]-NH2)"
endpoint_label = "MIC Pseudomonas aeruginosa ATCC 27853"
unit_symbol = "µg/mL"
endpoint_result = 2

[[record]]
compound = "CC(=O)N[C@H](CCCNC(=N)N)C(=O)N[C@H](CCCNC(=N)N)C(=O)N[C@H](CC(C)C)C(=O)N[C@H](CC(C)C)C(=O)N[C@H](Cc1ccc2ccccc2c1)C(=O)N[C@H](CCCNC(=N)N)C(=O)N[C@H](CC(C)C)C(=O)N[C@H](CCCCN)C(=O)N[C@H](Cc1ccc2ccccc2c1)C(=O)N[C@H](CCCNC(=N)N)C(=O)N[C@H](CCCCN)C(N)=O [LV-21] (Ac-[dR][dR][dL][dL][d2Nal][dR][dL][dK][d2Nal][dR][dK]-NH2)"
endpoint_label = "MIC Pseudomonas aeruginosa ATCC 27853"
unit_symbol = "µg/mL"
endpoint_result = 2


From: patent US20250304620A1
